Where do the numbers come from? From the supplement of paper PMC8975748.

tested on: Saccharomyces cerevisiae BY4741 SeMeCo community; assay: z-score of subpopulation abundance vs DMSO median, subpopulation auxotrophic for HM; higher = larger share of this subpopulation than in DMSO controls; conditions: 10 µM; 24 h; SM minimal medium; subpopulation (auxotrophy): HM
Counter-ions that a name gives are not always drawn.
z-score of subpopulation abundance of -0.01 or higher: criterion met. Under -0.01: criterion not met.

Compound	Label Value
CCN(CC)CCNC(=O)c1cc(Cl)c(N)cc1OC [Metoclopramide]	criterion met
Cc1cc(-c2ccc(/N=N/c3ccc4c(S(=O)(=O)O)cc(S(=O)(=O)O)c(N)c4c3O)c(C)c2)ccc1/N=N/c1ccc2c(S(=O)(=O)O)cc(S(=O)(=O)O)c(N)c2c1O	criterion not met
C#C[C@]1(O)CC[C@H]2[C@@H]3CCc4cc(OC5CCCC5)ccc4[C@H]3CC[C@@]21C	criterion met
CN(C)CCC=C1c2ccccc2CCc2ccccc21 [Amitriptyline HCl]	criterion not met
Cc1nnc(NS(=O)(=O)c2ccc(N)cc2)s1	criterion not met

Given the entry Cc1cc(NS(=O)(=O)c2ccc(N)cc2)no1 [Sulfamethoxazole sodium] , answer whether its z-score of subpopulation abundance meets or surpasses -0.01.
criterion not met

Given the entry CO/N=C(\C(=O)N[C@@H]1C(=O)N2C(C(=O)O)=C(COC(N)=O)CS[C@H]12)c1ccco1 [Cefuroxime sodium] , answer whether its z-score of subpopulation abundance meets or surpasses -0.01.
criterion not met

Given the entry CN1C[C@@H]2C[C@H]1CN2c1cc2c(cc1F)c(=O)c(C(=O)O)cn2C1CC1 [Danofloxacin Mesylate] , answer whether its z-score of subpopulation abundance meets or surpasses -0.01.
criterion not met

Given the entry Oc1c(I)cc(I)c2cccnc12 [Diiodohydroxyquinoline] , answer whether its z-score of subpopulation abundance meets or surpasses -0.01.
criterion met

Given the entry `CC(=O)Oc1ccc(C(=C2CCCCC2)c2ccc(OC(C)=O)cc2)cc1` , answer whether its z-score of subpopulation abundance meets or surpasses -0.01.
criterion not met

Given the entry COCCOC(=O)C1=C(C)NC(C)=C(C(=O)OC/C=C/c2ccccc2)C1c1cccc([N+](=O)[O-])c1 (centres undefined) , answer whether its z-score of subpopulation abundance meets or surpasses -0.01.
criterion met

###

test system: Saccharomyces cerevisiae BY4741 SeMeCo community; assay: z-score of subpopulation abundance vs DMSO median, subpopulation auxotrophic for LM; higher = larger share of this subpopulation than in DMSO controls; conditions: 10 µM; 24 h; SM minimal medium; subpopulation (auxotrophy): LM
Structures can show the parent of a compound that is named as a salt.
z-score of subpopulation abundance of -0.7 or higher: Yes. Under -0.7: No.

> print(dat)
                                   compound                              study.system  label.value
1  CCCCOc1cc(C(=O)OCCN(CC)CC)ccc1N [Oxybuprocaine HCl]  Saccharomyces cerevisiae BY4741 SeMeCo community          Yes
2  CN(C/C=C/C#CC(C)(C)C)Cc1cccc2ccccc12 [Terbinafine HCl]  Saccharomyces cerevisiae BY4741 SeMeCo community           No
3  CO[C@@]1(NC(=O)Cc2cccs2)C(=O)N2C(C(=O)O)=C(COC(N)=O)CS[C@@H]21 [Cefoxitin sodium]  Saccharomyces cerevisiae BY4741 SeMeCo community           No
4  CN1CCN(CC(=O)N2c3ccccc3C(=O)Nc3cccnc32)CC1 [Pirenzepine dihydrochloride]  Saccharomyces cerevisiae BY4741 SeMeCo community          Yes
5  CCN(CC)C(=O)[C@@]1(c2ccccc2)C[C@H]1CN [Levomilnacipran Hydrochloride]  Saccharomyces cerevisiae BY4741 SeMeCo community           No
6                     COc1ccc(C(C)=O)c(O)c1  Saccharomyces cerevisiae BY4741 SeMeCo community          Yes
7  C[C@@H]1CN(c2c(F)c(N)c3c(=O)c(C(=O)O)cn(C4CC4)c3c2F)C[C@H](C)N1  Saccharomyces cerevisiae BY4741 SeMeCo community          Yes

Switching to the query record.
Given the entry CC(=O)OC(C)C[N+](C)(C)C (centres undefined) [Methacholine chloride] , answer whether its z-score of subpopulation abundance meets or surpasses -0.7.
Yes

###

test system: Saccharomyces cerevisiae BY4741 SeMeCo community; assay: z-score of subpopulation abundance vs DMSO median, subpopulation auxotrophic for HLM; higher = larger share of this subpopulation than in DMSO controls; conditions: 10 µM; 24 h; SM minimal medium; subpopulation (auxotrophy): HLM
Counter-ions that a name gives are not always drawn.
Assay Endpoint: z-score of subpopulation abundance
Lab note: record the figure alone, no unit after it.

Take a look at these entries with their results.
Compound	Study System	Test Result
CCN(CC)C(=O)C1(c2ccccc2)CC1CN (stereo unspecified) [Milnacipran HCl]	Saccharomyces cerevisiae BY4741 SeMeCo community	-0.14
OC(c1ccccc1)(c1ccccc1)C12CC[N+](CCOCc3ccccc3)(CC1)CC2 [Umeclidinium bromide]	Saccharomyces cerevisiae BY4741 SeMeCo community	0.44
O=C(O)C[C@H](O)C[C@H](O)/C=C/c1c(C2CC2)nc2ccccc2c1-c1ccc(F)cc1 [Pitavastatin Calcium]	Saccharomyces cerevisiae BY4741 SeMeCo community	2.39
Cc1cc(O)c(C(=O)N[C@@H](C(=O)N[C@@H]2C(=O)N3C(C(=O)O)=C(CSc4nnnn4C)CS[C@H]23)c2ccc(O)cc2)cn1 [Cefpiramide sodium]	Saccharomyces cerevisiae BY4741 SeMeCo community	-0.6
CO/N=C(\C(=O)N[C@@H]1C(=O)N2C(C(=O)O)=C(COC(N)=O)CS[C@H]12)c1ccco1 [Cefuroxime sodium]	Saccharomyces cerevisiae BY4741 SeMeCo community	-1.17

// compound Nc1ccc(S(=O)(=O)Nc2cnc3ccccc3n2)cc1 [Sulfaquinoxaline sodium] , assay Saccharomyces cerevisiae BY4741 SeMeCo community, z-score of subpopulation abundance value: -0.05

// compound CCC[C@@H]1C[C@@H](C(=O)N[C@@H]([C@H]2O[C@H](SC)[C@H](O)[C@@H](O)[C@H]2O)[C@@H](C)O)N(C)C1 [Lincomycin Hydrochloride Monohydrate] , assay Saccharomyces cerevisiae BY4741 SeMeCo community, z-score of subpopulation abundance value: -0.3

// compound COc1ccnc(C[S+]([O-])c2nc3cc(OC(F)F)ccc3[nH]2)c1OC (stereo unspecified) [Pantoprazole] , assay Saccharomyces cerevisiae BY4741 SeMeCo community, z-score of subpopulation abundance value: 0.09

// compound O=C(c1ccccc1)c1ccc2n1CCC2C(=O)O (stereo unspecified) [Ketorolac] , assay Saccharomyces cerevisiae BY4741 SeMeCo community, z-score of subpopulation abundance value: -0.11

###

test system: Saccharomyces cerevisiae BY4741 SeMeCo community; test: z-score of subpopulation abundance vs DMSO median, subpopulation auxotrophic for LM; higher = larger share of this subpopulation than in DMSO controls; conditions: 10 µM; 24 h; SM minimal medium; subpopulation (auxotrophy): LM
Structures can show the parent of a compound that is named as a salt.
z-score of subpopulation abundance of -0.2 or higher: 1. Under -0.2: 0.

Compound	Label Value
COC(=O)C1=C(C)NC(C)=C(C(=O)OCCN2CCN(C(c3ccccc3)c3ccccc3)CC2)C1c1cccc([N+](=O)[O-])c1 (stereo not given) [Manidipine]	1

Given the entry O=C1C(=O)c2ccccc2C(O)=C1C1CCC(c2ccc(Cl)cc2)CC1 (stereo not given) , answer whether its z-score of subpopulation abundance meets or surpasses -0.2.
1

Given the entry CO[C@@H]1[C@@H](OC(N)=O)[C@@H](O)[C@H](Oc2ccc3c(O)c(NC(=O)c4ccc(O)c(CC=C(C)C)c4)c(=O)oc3c2C)OC1(C)C [Novobiocin Sodium] , answer whether its z-score of subpopulation abundance meets or surpasses -0.2.
0

Given the entry `CC(C)NC(=N)NC(=N)Nc1ccc(Cl)cc1` , answer whether its z-score of subpopulation abundance meets or surpasses -0.2.
1

Given the entry `O=c1[nH]c2ccccc2n1CCN1CCN(c2cccc(C(F)(F)F)c2)CC1` , answer whether its z-score of subpopulation abundance meets or surpasses -0.2.
0

Given the entry CCCc1nn(C)c2c(=O)[nH]c(-c3cc(S(=O)(=O)N4CCN(C)CC4)ccc3OCC)nc12 [Sildenafil Citrate] , answer whether its z-score of subpopulation abundance meets or surpasses -0.2.
0

Given the entry Nc1ccc(S(N)(=O)=O)cc1 [Sulfanilamide] , answer whether its z-score of subpopulation abundance meets or surpasses -0.2.
0

Given the entry CC(C(=O)O)c1cccc(C(=O)c2ccccc2)c1 (stereo not given) , answer whether its z-score of subpopulation abundance meets or surpasses -0.2.
1

Given the entry CC(C)COCC(CN(Cc1ccccc1)c1ccccc1)N1CCCC1 (stereo not given) [Bepridil hydrochloride] , answer whether its z-score of subpopulation abundance meets or surpasses -0.2.
1

Given the entry COc1cccc(-c2c(C)n(Cc3c(F)cccc3C(F)(F)F)c(=O)n(C[C@H](NCCCC(=O)O)c3ccccc3)c2=O)c1F [Elagolix Sodium] , answer whether its z-score of subpopulation abundance meets or surpasses -0.2.
0

Given the entry CSCC1CN(/N=C/c2ccc([N+](=O)[O-])o2)C(=O)O1 (stereo not given) , answer whether its z-score of subpopulation abundance meets or surpasses -0.2.
1

Given the entry NCC[C@H](O)C(=O)N[C@@H]1C[C@H](N)[C@@H](O[C@H]2O[C@H](CN)[C@@H](O)[C@H](O)[C@H]2O)[C@H](O)[C@H]1O[C@H]1O[C@H](CO)[C@@H](O)[C@H](N)[C@H]1O [Amikacin disulfate] , answer whether its z-score of subpopulation abundance meets or surpasses -0.2.
1

Given the entry CC1(C)S[C@@H]2[C@H](NC(=O)[C@H](NC(=O)N3CCN(S(C)(=O)=O)C3=O)c3ccccc3)C(=O)N2[C@H]1C(=O)O [Mezlocillin Sodium] , answer whether its z-score of subpopulation abundance meets or surpasses -0.2.
0

Given the entry `CSc1nc2cc(Cl)c(Oc3cccc(Cl)c3Cl)cc2[nH]1` , answer whether its z-score of subpopulation abundance meets or surpasses -0.2.
0

Given the entry Cc1ncc([N+](=O)[O-])n1CC(C)O (stereo not given) , answer whether its z-score of subpopulation abundance meets or surpasses -0.2.
0
